- ASSAY NOTES: Cytotoxicity against mouse B16F10 cells after 7 days by MTT/SRB assay
- Format: cell-based
- EXPERIMENTAL PARAMETERS: B16-F10, 168 h
Entries and their IC50
API: value field is a number in µM; no unit string.

Cc1cc2nc(CCc3cc(Cl)cc(Cl)c3)[nH]c2cc1C ... 28
Cc1cc2nc(CCc3ccccc3)[nH]c2cc1C ... 3.9

Query block: Would you kindly share the measured IC50 for Nc1c(NC(=O)CCc2cc(Cl)cc(Cl)c2)cc(Cl)cc1[N+](=O)[O-] ?
Result block: 59

----------
- Tested on: Mycobacterium tuberculosis
- ASSAY NOTES: Tuberculostatic activity against Mycobacterium tuberculosis Spec. 192 by two-fold classical test-tube method
- Type: functional
Entries and their MIC values follow.
Answer shape: numeric part, then the unit.

// below: answered compounds
O=S(=O)(c1ccccc1)n1c(/C=C/c2ccccc2)nc2cc(F)ccc21 ... 132 µM
O=[N+]([O-])c1cc(Cl)cc2[nH]c(CCc3cc(Cl)cc(Cl)c3)nc12 ... 68 µM
Fc1ccc2[nH]c(CCc3cc(Cl)cc(Cl)c3)nc2c1 ... 320 µM
Cc1cc2nc(/C=C/c3ccccc3)n(S(=O)(=O)c3ccccc3)c2cc1C ... 258 µM
Nc1c(NC(=O)CCc2ccccc2)cc(Cl)cc1[N+](=O)[O-] ... 320 µM

Query block: Provide value of MIC for this record tested with Mycobacterium tuberculosis: O=[N+]([O-])c1cc(Cl)cc2[nH]c(CCc3ccccc3)nc12
Result block: 330 µM

Query block: Quick check: MIC on Mycobacterium tuberculosis, item Fc1ccc2[nH]c(/C=C/c3ccccc3)nc2c1 ?
Result block: 210 µM

Query block: # returns recorded MIC (system: Mycobacterium tuberculosis) for NNC(=O)c1ccncc1
Result block: 91 µM

Query block: Please tell me: MIC of Cc1cc2nc(CCc3cc(Cl)cc(Cl)c3)[nH]c2cc1C , system Mycobacterium tuberculosis?
Result block: 5 µM

Query block: Lab note: need MIC for Cc1cc2nc(/C=C/c3ccccc3)[nH]c2cc1C on Mycobacterium tuberculosis, anyone have it?
Result block: 13 µM

Query block: Item Cc1cc2nc(CCc3ccccc3)[nH]c2cc1C with Mycobacterium tuberculosis - MIC?
Result block: 6.3 µM

These entries and their values trace back to ChEMBL document CHEMBL3399921.
